- Tested on: ZEM9A (clinical MDR P. aeruginosa isolate)
- particulars: CSV; […] MH at pH 8.5
Where a SMILES comes first, the peptide text is derived from it. [ ]: non-standard residue; d: D form. Nleu = CC(C)CNCC(=O)O; Nlys = NCCCCNCC(=O)O
assay metric: MIC P. aeruginosa ZEM9A, […] MH at pH 8.5
Give the figure together with its unit, number first.

CC(C)C[C@H](NC(=O)[C@H](CC(C)C)NC(=O)[C@H](CC(C)C)NC(=O)[C@H](CCCCN)NC(=O)[C@H](CC(C)C)NC(=O)[C@H](CC(C)C)NC(=O)CN(CCCCN)C(=O)[C@H](CC(C)C)NC(=O)[C@H](CC(C)C)NC(=O)CN(CCCCN)C(=O)CNCCCCN)C(N)=O [EB6, kkLLkLLKLLL] (H-[Nlys][Nlys]LL[Nlys]LLKLLL-NH2)
2 ug/mL
CC(C)C[C@H](NC(=O)[C@H](CC(C)C)NC(=O)[C@H](CC(C)C)NC(=O)[C@@H](CCCCN)NC(=O)[C@H](CC(C)C)NC(=O)[C@H](CC(C)C)NC(=O)[C@@H](CCCCN)NC(=O)[C@H](CC(C)C)NC(=O)[C@H](CC(C)C)NC(=O)[C@@H](CCCCN)NC(=O)[C@H](N)CCCCN)C(N)=O [ln69, kkLLkLLkLLL, reference compound] (H-[dK][dK]LL[dK]LL[dK]LLL-NH2)
2 ug/mL
CC(C)C[C@H](NC(=O)[C@H](CC(C)C)NC(=O)[C@H](CC(C)C)NC(=O)[C@H](CCCCN)NC(=O)[C@H](CC(C)C)NC(=O)[C@H](CC(C)C)NC(=O)CN(CCCCN)C(=O)CN(CC(C)C)C(=O)CN(CC(C)C)C(=O)CN(CCCCN)C(=O)CNCCCCN)C(N)=O [EB5, kkllkLLKLLL] (H-[Nlys][Nlys][Nleu][Nleu][Nlys]LLKLLL-NH2)
2 ug/mL

[in] Annotate the compound CC(C)CN(CC(N)=O)C(=O)CN(CC(C)C)C(=O)CN(CC(C)C)C(=O)CN(CCCCN)C(=O)CN(CC(C)C)C(=O)CN(CC(C)C)C(=O)CN(CCCCN)C(=O)CN(CC(C)C)C(=O)CN(CC(C)C)C(=O)CN(CCCCN)C(=O)CNCCCCN [EB11, kkllkllklll] (H-[Nlys][Nlys][Nleu][Nleu][Nlys][Nleu][Nleu][Nlys][Nleu][Nleu][Nleu]-NH2) with its measured MIC P. aeruginosa ZEM9A, […] MH at pH 8.5.
[out] 4 ug/mL

[in] Annotate the compound CC(C)C[C@H](NC(=O)CN(CC(C)C)C(=O)[C@H](CC(C)C)NC(=O)CN(CCCCN)C(=O)[C@H](CC(C)C)NC(=O)CN(CC(C)C)C(=O)[C@H](CCCCN)NC(=O)CN(CC(C)C)C(=O)[C@H](CC(C)C)NC(=O)CN(CCCCN)C(=O)[C@@H](N)CCCCN)C(N)=O [EB9, KkLlKlLkLlL] (H-K[Nlys]L[Nleu]K[Nleu]L[Nlys]L[Nleu]L-NH2) with its measured MIC P. aeruginosa ZEM9A, […] MH at pH 8.5.
[out] 2 ug/mL
